Origin of values: ChEMBL document CHEMBL3991601

# System Tested: Breakpoint cluster region protein (Homo sapiens, UniProt P11274); also: in the data inactive means no Kd found up to 30 µM
# Sequence (P11274 whole entry): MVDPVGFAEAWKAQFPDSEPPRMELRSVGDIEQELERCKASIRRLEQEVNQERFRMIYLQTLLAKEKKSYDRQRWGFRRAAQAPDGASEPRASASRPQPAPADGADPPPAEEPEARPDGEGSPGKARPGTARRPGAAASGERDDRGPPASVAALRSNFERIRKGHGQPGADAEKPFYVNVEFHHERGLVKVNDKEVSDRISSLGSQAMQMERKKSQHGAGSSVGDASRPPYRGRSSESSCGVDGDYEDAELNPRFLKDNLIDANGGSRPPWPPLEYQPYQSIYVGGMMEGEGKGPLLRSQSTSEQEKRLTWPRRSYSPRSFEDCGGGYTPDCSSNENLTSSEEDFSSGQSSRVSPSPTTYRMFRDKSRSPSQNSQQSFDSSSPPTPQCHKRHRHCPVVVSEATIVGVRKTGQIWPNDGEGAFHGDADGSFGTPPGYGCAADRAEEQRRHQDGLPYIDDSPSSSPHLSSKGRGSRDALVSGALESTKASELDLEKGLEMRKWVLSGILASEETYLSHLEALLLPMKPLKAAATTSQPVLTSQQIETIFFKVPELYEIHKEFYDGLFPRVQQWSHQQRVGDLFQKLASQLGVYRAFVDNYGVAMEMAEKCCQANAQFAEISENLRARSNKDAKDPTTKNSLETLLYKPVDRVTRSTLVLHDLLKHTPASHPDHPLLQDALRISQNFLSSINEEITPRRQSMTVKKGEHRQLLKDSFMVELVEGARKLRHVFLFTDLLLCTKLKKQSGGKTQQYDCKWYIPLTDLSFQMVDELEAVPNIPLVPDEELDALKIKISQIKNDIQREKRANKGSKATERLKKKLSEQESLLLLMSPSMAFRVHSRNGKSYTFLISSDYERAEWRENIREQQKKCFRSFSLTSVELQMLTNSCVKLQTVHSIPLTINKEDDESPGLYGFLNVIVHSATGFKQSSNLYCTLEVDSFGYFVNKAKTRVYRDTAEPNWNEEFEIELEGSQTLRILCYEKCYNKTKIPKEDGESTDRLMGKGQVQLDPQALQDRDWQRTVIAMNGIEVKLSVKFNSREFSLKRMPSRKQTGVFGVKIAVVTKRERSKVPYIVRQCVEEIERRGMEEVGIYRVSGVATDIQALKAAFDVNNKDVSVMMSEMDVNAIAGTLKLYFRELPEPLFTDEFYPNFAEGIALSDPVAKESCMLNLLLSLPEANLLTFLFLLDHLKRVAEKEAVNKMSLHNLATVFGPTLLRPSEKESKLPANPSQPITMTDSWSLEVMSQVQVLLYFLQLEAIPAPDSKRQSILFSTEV
Calls of active or inactive are those of the source.
Tick one outcome: active, inactive

Reference set, count: 3
Cc1[nH]c(/C=C2\C(=O)Nc3ccccc32)c(C)c1CCC(=O)O [ORANTINIB] | inactive
COc1cc2ncnc(Oc3cccc(NC(=O)Nc4cc(C(C)(C)C(F)(F)F)on4)c3)c2cc1OC | active
C[C@@H](N)c1ccc(C(=O)Nc2ccnc3[nH]ccc23)cc1 | inactive

QUERY: Called result for COc1cc2c(Nc3ccc(Cl)c(Cl)c3F)ncnc2cc1OC[C@@H]1C[C@@H]2CN(C)C[C@@H]2C1
RESULT: active

* * *

# System Tested: Discoidin domain-containing receptor 2 (Homo sapiens, UniProt Q16832); also: in the data inactive means no Kd found up to 30 µM
# Sequence (Q16832 whole entry, the tested form may be a part): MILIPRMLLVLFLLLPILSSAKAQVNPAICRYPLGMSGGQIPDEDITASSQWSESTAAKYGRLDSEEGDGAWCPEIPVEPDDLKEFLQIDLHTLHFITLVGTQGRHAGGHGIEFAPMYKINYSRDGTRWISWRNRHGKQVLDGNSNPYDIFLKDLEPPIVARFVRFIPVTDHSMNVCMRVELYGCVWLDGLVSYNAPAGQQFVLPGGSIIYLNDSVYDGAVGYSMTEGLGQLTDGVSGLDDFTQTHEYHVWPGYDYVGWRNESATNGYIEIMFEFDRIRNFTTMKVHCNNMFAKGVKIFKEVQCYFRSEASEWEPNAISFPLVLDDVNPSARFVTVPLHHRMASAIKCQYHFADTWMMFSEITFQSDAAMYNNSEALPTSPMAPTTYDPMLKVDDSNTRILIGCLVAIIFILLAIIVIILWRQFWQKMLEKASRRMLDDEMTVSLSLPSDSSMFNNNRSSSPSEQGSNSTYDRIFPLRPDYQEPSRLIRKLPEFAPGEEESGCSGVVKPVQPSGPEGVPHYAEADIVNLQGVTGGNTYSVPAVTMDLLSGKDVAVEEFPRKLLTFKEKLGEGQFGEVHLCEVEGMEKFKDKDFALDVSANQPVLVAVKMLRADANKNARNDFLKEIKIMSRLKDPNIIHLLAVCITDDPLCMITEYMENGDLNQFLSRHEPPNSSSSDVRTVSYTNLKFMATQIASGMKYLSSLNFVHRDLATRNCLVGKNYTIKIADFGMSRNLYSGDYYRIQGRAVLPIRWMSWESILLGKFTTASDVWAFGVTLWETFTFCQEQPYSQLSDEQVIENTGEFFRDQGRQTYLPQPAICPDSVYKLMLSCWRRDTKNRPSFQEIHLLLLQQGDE
Activity calls are given as the source filed them.
Respond with a class label; see active, inactive

Would you please look over these solved cases?
N#CC1(c2ccc(NC(=O)c3cccnc3NCc3ccncc3)cc2)CCCC1 | inactive
CO[C@H]1C[C@@H]2CC[C@@H](C)[C@@](O)(O2)C(=O)C(=O)N2CCCC[C@H]2C(=O)O[C@H]([C@H](C)C[C@@H]2CC[C@@H](O)[C@H](OC)C2)CC(=O)[C@H](C)/C=C(\C)[C@@H](O)[C@@H](OC)C(=O)[C@H](C)C[C@H](C)/C=C/C=C/C=C/1C | inactive
O=C(Nc1c[nH]nc1-c1nc2cc(CN3CCOCC3)ccc2[nH]1)NC1CC1 | inactive
NC1(c2ccc(-c3nc4ccn5c(=O)[nH]nc5c4cc3-c3ccccc3)cc2)CCC1 | inactive

QUERY: Entry C[C@@H](NC(=O)c1ncnc(N)c1Cl)c1ncc(C(=O)Nc2cc(C(F)(F)F)c(Cl)cn2)s1 : call = ?
RESULT: active

QUERY: Short answer needed: outcome of this test for Cc1nc(Nc2n[nH]c3c2CN(C(=O)N[C@H](CN(C)C)c2ccccc2)C3(C)C)c2sccc2n1 ?
RESULT: inactive

QUERY: Which result was noted for this compound in the test: Cc1csc(-c2nnc(Nc3ccc(Oc4ncccc4-c4ccnc(N)n4)cc3)c3ccccc23)c1
RESULT: active

QUERY: For Cc1cnc(NC(=O)Nc2cc(Br)c(C)cc2OC[C@@H]2CNCCO2)cn1 , which call appears in the assay record?
RESULT: inactive

* * *

# System Tested: Mitogen-activated protein kinase 9 (Homo sapiens); also: in the data inactive means no Kd found up to 30 µM
Calls of active or inactive are those of the source.
Hi! Could you answer with just one of these? active, inactive

FC(F)(F)c1ccc(/C=C/c2nc(COc3ccc(CCCCn4ccnn4)cc3)co2)cc1 | inactive
Cn1cc(-c2cnc3ccc4ccc(CS(=O)(=O)NCc5ccccn5)cc4c(=O)c3c2)cn1 | inactive
CCS(=O)(=O)c1cccc(-c2cc(C(=O)NC3CCN(C)CC3)c(C)c3[nH]c4ncc(C)cc4c23)c1 | inactive
COc1cc2c(Nc3ccc(Cl)c(Cl)c3F)ncnc2cc1OC[C@@H]1C[C@@H]2CN(C)C[C@@H]2C1 | inactive
C#Cc1cccc(Nc2ncnc3cc(OC)c(OCCCCCCC(=O)NO)cc23)c1 | inactive

QUERY: Identify the outcome logged in this assay for the compound shown: COCc1c(-c2ccc(NC(=O)Nc3cc(C(F)(F)F)ccc3F)c(F)c2)c2c(N)ncnn2c1CN1CCOCC1
RESULT: active

QUERY: Please let me know the test result on file for O=C(Nc1nc2cccc(-c3ccc(CN4CCS(=O)(=O)CC4)cc3)n2n1)C1CC1 .
RESULT: inactive

QUERY: Call for entry COc1ccc(S(=O)(=O)N(C(C)=O)c2ccccc2/C=C/c2cc[n+]([O-])cc2)cc1 :
RESULT: inactive

* * *

# System Tested: Epidermal growth factor receptor (Homo sapiens); also: in the data inactive means no Kd found up to 30 µM
# Sequence (P00533 whole entry): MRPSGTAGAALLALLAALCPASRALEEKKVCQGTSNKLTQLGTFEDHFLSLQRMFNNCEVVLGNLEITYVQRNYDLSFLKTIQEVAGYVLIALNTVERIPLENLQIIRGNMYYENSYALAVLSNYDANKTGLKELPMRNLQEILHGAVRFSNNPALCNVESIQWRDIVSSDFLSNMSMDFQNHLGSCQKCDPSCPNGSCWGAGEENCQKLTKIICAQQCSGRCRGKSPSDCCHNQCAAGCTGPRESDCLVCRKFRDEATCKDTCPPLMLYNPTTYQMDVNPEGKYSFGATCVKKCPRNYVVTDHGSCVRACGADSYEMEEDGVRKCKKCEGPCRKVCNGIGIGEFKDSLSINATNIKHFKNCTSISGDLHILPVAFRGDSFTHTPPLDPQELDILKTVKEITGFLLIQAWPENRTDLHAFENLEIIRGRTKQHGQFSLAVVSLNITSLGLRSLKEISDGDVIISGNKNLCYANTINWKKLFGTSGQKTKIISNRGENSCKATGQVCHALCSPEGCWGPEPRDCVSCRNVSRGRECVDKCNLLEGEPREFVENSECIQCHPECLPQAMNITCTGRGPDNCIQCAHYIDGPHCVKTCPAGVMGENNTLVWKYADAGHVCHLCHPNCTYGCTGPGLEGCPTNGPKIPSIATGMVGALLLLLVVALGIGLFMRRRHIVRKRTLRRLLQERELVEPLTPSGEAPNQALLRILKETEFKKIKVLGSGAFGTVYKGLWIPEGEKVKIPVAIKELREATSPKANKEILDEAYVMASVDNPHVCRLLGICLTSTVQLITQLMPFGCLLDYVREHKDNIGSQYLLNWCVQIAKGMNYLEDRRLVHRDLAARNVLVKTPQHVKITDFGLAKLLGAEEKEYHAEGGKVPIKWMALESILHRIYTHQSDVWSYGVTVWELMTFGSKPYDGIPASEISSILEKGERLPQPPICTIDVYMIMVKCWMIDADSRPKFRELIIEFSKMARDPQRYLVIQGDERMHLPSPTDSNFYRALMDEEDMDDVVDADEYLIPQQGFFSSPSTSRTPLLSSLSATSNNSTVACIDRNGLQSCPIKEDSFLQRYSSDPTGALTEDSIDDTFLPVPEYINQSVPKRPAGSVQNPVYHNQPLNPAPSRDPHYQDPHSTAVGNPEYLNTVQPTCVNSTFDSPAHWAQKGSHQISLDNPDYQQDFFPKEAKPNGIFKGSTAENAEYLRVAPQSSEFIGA
The source made the active and inactive calls.
Measured Endpoint: Kd

Worked cases, answers included:
CCn1c(C(=O)N(C2CC2)C2CC2)cc2c3c(ncn3C)c(Nc3cc(C)n(C)n3)nc21 | > 30 µM (inactive)
COc1c(OCCCN2CCOCC2)ccc2c1N=C(NC(=O)c1cnc(N)nc1)N1CCN=C21 | > 30 µM (inactive)
O=C(Nc1cc(C(F)(F)F)cc(C(F)(F)F)c1)c1cc(Cl)ccc1O | > 30 µM (inactive)
CCNC(=O)C#Cc1ccc2c(c1)NC(=O)/C2=C(\Nc1ccc(CN(C)C)cc1)c1ccccc1 | > 30 µM (inactive)

For every item in the list below, what is its measured Kd?
1. Cc1cnc(NC(=O)Nc2cc(Br)c(C)cc2OC[C@@H]2CNCCO2)cn1
2. CN1C/C=C/CCOc2cccc(c2)-c2ccnc(n2)Nc2cccc(c2)C1

RESULT:
> 30 µM (inactive)
79.9 µM

* * *

This section lists Kd readings for Dual specificity testis-specific protein kinase 1 (Homo sapiens, UniProt Q15569).
Where a name gives a salt, the structure may show the parent alone. Calls of active or inactive are those of the source.

COc1c(OCCCN2CCOCC2)ccc2c1N=C(NC(=O)c1cnc(N)nc1)N1CCN=C21 [COPANLISIB] | > 30 µM (inactive)
COc1cc2c(Nc3ccc(Cl)c(Cl)c3F)ncnc2cc1OC[C@@H]1C[C@@H]2CN(C)C[C@@H]2C1 [TESEVATINIB] | > 30 µM (inactive)
Cc1csc(-c2nnc(Nc3ccc(Oc4ncccc4-c4ccnc(N)n4)cc3)c3ccccc23)c1 [AMG-900] | > 30 µM (inactive)
CCS(=O)(=O)N1CCN(c2ccc(Nc3ncc(C(N)=O)c(NC4CC4)n3)cc2)CC1 [Cerdulatinib Hydrochloride] | > 30 µM (inactive)
CO[C@H]1C[C@@H]2CC[C@@H](C)[C@@](O)(O2)C(=O)C(=O)N2CCCC[C@H]2C(=O)O[C@H]([C@H](C)C[C@@H]2CC[C@@H](OC(=O)C(C)(CO)CO)[C@H](OC)C2)CC(=O)[C@H](C)/C=C(\C)[C@@H](O)[C@@H](OC)C(=O)[C@H](C)C[C@H](C)/C=C/C=C/C=C/1C [TEMSIROLIMUS] | > 30 µM (inactive)

# batch: return Kd for each of the 3 molecules below
1. Cc1[nH]c(/C=C2\C(=O)Nc3ccccc32)c(C)c1CCC(=O)O [ORANTINIB]
2. O=c1[nH]ccc2cc(OC3CCNCC3)ccc12 [SAR-407899 FREE BASE]
3. Cn1cc(-c2cnc3ccc4ccc(CS(=O)(=O)NCc5ccccn5)cc4c(=O)c3c2)cn1 [MK-8033]

RESULT:
["> 30 µM (inactive)", "> 30 µM (inactive)", "> 30 µM (inactive)"]

Lab note: each molecule below needs its Kd filled in.
1. Cn1cnc2c(F)c(Nc3ccc(Br)cc3F)c(C(=O)NOCCO)cc21 [BINIMETINIB]
2. Cc1nc2cc(-n3ncc(C(=O)c4cc5ccccc5[nH]4)c3N)ccc2[nH]1 [FGFR INHIBITOR DEBIO 1347]
3. NC1(c2ccc(-c3nc4ccn5c(=O)[nH]nc5c4cc3-c3ccccc3)cc2)CCC1 [MK-2206]

RESULT:
["> 30 µM (inactive)", "> 30 µM (inactive)", "> 30 µM (inactive)"]

* * *

# System Tested: Ribosomal protein S6 kinase alpha-4 (Homo sapiens, UniProt O75676); also: in the data inactive means no Kd found up to 30 µM
# Sequence (O75676 whole entry): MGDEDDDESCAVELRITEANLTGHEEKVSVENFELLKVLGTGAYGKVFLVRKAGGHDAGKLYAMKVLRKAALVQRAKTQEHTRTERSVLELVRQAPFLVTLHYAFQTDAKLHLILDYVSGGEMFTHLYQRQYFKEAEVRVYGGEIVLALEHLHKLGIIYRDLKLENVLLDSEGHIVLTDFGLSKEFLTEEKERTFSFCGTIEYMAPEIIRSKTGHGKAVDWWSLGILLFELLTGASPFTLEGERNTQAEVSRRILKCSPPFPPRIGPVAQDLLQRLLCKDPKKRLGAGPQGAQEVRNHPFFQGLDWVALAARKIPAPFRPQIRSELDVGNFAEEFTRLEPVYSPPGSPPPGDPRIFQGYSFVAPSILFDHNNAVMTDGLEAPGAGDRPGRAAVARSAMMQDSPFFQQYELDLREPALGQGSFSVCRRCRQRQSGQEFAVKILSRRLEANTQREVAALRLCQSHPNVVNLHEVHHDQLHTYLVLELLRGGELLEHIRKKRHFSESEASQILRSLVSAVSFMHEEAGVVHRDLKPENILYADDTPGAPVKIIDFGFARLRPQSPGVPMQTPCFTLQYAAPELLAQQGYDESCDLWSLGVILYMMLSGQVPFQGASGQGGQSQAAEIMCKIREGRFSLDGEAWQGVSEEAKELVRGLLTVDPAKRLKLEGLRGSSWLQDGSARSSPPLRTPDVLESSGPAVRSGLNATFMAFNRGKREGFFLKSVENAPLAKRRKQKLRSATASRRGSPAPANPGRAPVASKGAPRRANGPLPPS
Activity calls are given as the source filed them.
Response enum: active, inactive

Solved cases (3 shown):
Cn1cnc2c(F)c(Nc3ccc(Br)cc3F)c(C(=O)NOCCO)cc21 | inactive
C=CC(=O)N1CCC[C@H](n2c(=O)n(-c3ccc(Oc4ccccc4)cc3)c3c(N)ncnc32)C1 | inactive
COc1ccc(S(=O)(=O)N(C(C)=O)c2ccccc2/C=C/c2cc[n+]([O-])cc2)cc1 | inactive

QUERY: Recorded test outcome, item CCS(=O)(=O)c1cccc(-c2cc(C(=O)NC3CCN(C)CC3)c(C)c3[nH]c4ncc(C)cc4c23)c1
RESULT: active

QUERY: Hi team, can someone confirm the assay call for Cc1cc(Nc2ncnc3ccc(NC4=NC(C)(C)CO4)cc23)ccc1Oc1ccn2ncnc2c1 ?
RESULT: inactive

QUERY: Per the records of this test, what outcome belongs to CN(C[C@@H]1COCCO1)S(=O)(=O)Nc1ccc2ccc3ncc(-c4cnn(C)c4)cc3c(=O)c2c1 ?
RESULT: inactive

QUERY: For CC(=O)NCC(=O)N1[C@@H]2CC[C@H]1c1ccc(Nc3ncc(C(F)(F)F)c(NC4CCC4)n3)cc12 , what call appears in the results of this test?
RESULT: active

QUERY: Identify the outcome logged in this assay for the compound shown: O=C(Nc1cc(C(F)(F)F)cc(C(F)(F)F)c1)c1cc(Cl)ccc1O
RESULT: inactive

* * *

# System Tested: Serine/threonine-protein kinase PAK 6 (Homo sapiens); also: in the data inactive means no Kd found up to 30 µM
# Sequence (Q9NQU5 whole entry): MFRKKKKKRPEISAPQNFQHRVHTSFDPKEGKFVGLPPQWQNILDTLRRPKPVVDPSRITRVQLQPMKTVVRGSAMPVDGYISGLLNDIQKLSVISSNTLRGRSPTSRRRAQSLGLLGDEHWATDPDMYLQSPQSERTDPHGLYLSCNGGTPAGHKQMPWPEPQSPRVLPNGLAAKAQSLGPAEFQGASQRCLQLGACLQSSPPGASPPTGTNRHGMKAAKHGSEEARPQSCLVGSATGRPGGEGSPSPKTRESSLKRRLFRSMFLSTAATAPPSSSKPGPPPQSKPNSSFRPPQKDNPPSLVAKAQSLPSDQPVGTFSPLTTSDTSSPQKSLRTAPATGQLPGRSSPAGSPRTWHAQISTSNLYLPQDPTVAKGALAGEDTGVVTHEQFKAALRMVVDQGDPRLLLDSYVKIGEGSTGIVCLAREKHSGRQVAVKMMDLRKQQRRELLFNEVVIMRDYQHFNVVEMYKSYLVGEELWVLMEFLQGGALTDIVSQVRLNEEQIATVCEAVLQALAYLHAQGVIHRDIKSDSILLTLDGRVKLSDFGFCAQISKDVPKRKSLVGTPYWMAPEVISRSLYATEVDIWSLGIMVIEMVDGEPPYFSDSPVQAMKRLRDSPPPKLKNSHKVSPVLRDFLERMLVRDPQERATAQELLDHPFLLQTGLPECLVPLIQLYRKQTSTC
Counter-ions that a name gives are not always drawn. Active and inactive are the calls of the source.
Output constraint: value belongs to true = active, false = inactive

Check out these entries, answers already filled in.
CC(C)(C)c1nc(-c2cccc(NS(=O)(=O)c3c(F)cccc3F)c2F)c(-c2ccnc(N)n2)s1 | false
O=c1[nH]ccc2cc(OC3CCNCC3)ccc12 [SAR-407899 FREE BASE] | false
CC(C)c1cc(CNc2nc(Nc3cc(C4CC4)[nH]n3)cc(N3CCN(C)CC3)n2)on1 | false
O=C(Nc1nc2cccc(-c3ccc(CN4CCS(=O)(=O)CC4)cc3)n2n1)C1CC1 | false
O=C1NC(=O)[C@@H](c2cn3c4c(cccc24)CCC3)[C@@H]1c1c[nH]c2ccccc12 [TIVANTINIB] | false

QUERY: Can you look up the reported call for COc1cc(Nc2ncc3c(n2)-c2ccc(Cl)cc2C(c2c(F)cccc2OC)=NC3)ccc1C(=O)O for me?
RESULT: false

QUERY: Please share the test call associated with COCC(=O)NC/C=C/c1ccc2ncnc(Nc3ccc(Oc4ccc(C)nc4)c(C)c3)c2c1 .
RESULT: false

QUERY: Lab log entry: C#Cc1cccc(Nc2ncnc3cc(OC)c(OCCCCCCC(=O)NO)cc23)c1 — outcome as called in the assay?
RESULT: false

QUERY: Recorded test call requested for CCS(=O)(=O)c1cccc(-c2cc(C(=O)NC3CCN(C)CC3)c(C)c3[nH]c4ncc(C)cc4c23)c1
RESULT: false

QUERY: What is the recorded call for this molecule in the test? Cn1cc(-c2cnn3c(N)c(Br)c([C@@H]4CCCNC4)nc23)cn1
RESULT: false

QUERY: Query: recorded result category for C[C@@H](Oc1cc(C(=O)Nc2ccc(C(=O)N3CCN(C)CC3)cc2)nnc1N)c1c(Cl)ccc(F)c1Cl in this test
RESULT: false

QUERY: Tell me the assay call for COc1ccc(S(=O)(=O)N(C(C)=O)c2ccccc2/C=C/c2cc[n+]([O-])cc2)cc1 please.
RESULT: false

QUERY: Dear all, I need the recorded test outcome for CCS(=O)(=O)N1CCN(c2ccc(Nc3ncc(C(N)=O)c(NC4CC4)n3)cc2)CC1 [Cerdulatinib Hydrochloride] , thank you.
RESULT: false
